# test-target: T1, bacterially produced human IL-6 (human, UniProt P05231 30-212)
# T1 construct: also called bactIL-6; prokaryotic IL-6
# protocol-summary: SPR; purified Fab over biotinylated IL-6 on streptavidin chip
quantity: Kd (nM)
Entry rule: numbers only, all in nM.

Kd reading for Fab 24D10 (Fab, V domains shown, Fab; also called pur24d10; 28f12(24D10)) VH: QLQVVESGGGLVQPGGSLRLSCAASGFTFSSYAMSWVRQAPGKGPEWVSRISSGGGSTSYADSVKGRFTISRDNAKNTLYLQMNSLKPEDTAVYYCANRAGWGMGDYWGQGTQVTVSS VL: QTVVTQEPSLSVSPGGTVTLTCGLSSGSVTASNYPGWFQQTPGQAPRALIYSTNDRHSGVPSRFSGSISGNKAALTITGAQPEDEADYYCALDIGDITEFGGGTHLTVLG : 0.27
